assay: soluble on expression in E. coli; label from the status in PepcDB or PDB records

Item sequence: MTRHGKNSTAASVYTYHERRRDAKASGYGTLHARLGADSIKEFHCCSLTLQPCRNPVISPTGYIFDREAILENILAQKKAYAKKLKEYEKQVAEESAAAKIAEGQAETFTKRTQFSAIESTPSRTGAVATPRPEVGSLKRQGGVMSTEIAAKVKAHGEEGVMSNMKGDKSTSLPSFWIPELNPTAVATKLEKPSSKVLCPVSGKPIKLKELLEVKFTPMPGTETAAHRKFLCPVTRDELTNTTRCAYLKKSKSVVKYDVVEKLIKGDGIDPINGEPMSEDDIIELQRGGTGYSATNETKAKLIRPQLELQ
soluble on expression in E. coli: soluble

Item sequence: MKWPWWPVCVPLSKRLTLPLPSTANPVVQPSRLALACANRLFEAADNRERFLQALMTPPAYPATVLWCGEPAAALPFAALPPLPWQPPWVSRFVAGSPTGQHPLHAAGAYYCLDSSSVFAAVPLLTLPQEPSLVIDVCAAPGGKSLFAWRSLHPRYLICNETIGKRVGKLIGNLKRCRVHPVGVTSWDSEVLAAEFQGTADVVIVDAPCSGQSLLAKGQKAEGCFHPLTIRHNQRRQKRILAAATTLVRPGGWLLYSTCTFSQDENEDVAAWLMAKFPHLLPQPVPALAAYQSHLAAFPCYRLWPHQGEGAGAFTILWQHQGLEHHHHHH
soluble on expression in E. coli: soluble

---

assay: soluble on expression in E. coli; label from the status in PepcDB or PDB records

Item sequence: TNTDQSIKFTSKSNSINKNNQNKELALLRDNLMNEAKVDEPLSFEKRFENFKNKYSDIHSLNNSVFSLHDVYDLLGGFKQSLTTFFDEVIAQQQKIKDADKIFPSTKDNPPKEENPNVLDTLANYQGAGFFPSLGKNGFNLPEAVFQNFTDFRINDYKIKNFNVDLVSENDIIKHDKVRYAFEV
soluble on expression in E. coli: not soluble
--
Item sequence: MGSDKIHHHHHHMDMLLKKILGTFGVSGREKEISEVIKEELNKYPCEVREDKLGNIIVKLGSGREKIMLSTNMDKKGVITYHIEEDGKVRIDAIGDIKADDIIGKTVVFRSGIEGKIESEKKENNEFRDIYVNVNMGKREAVLKYISEGEAAEFGGNTFADKENVVGPYLSNRAGCYAFLKVIKEIKSIDKEVYFVFSTQGNLNGRGARAAAFEIEPDMCISVNTEKEGEVKLSEGPILVLMEKGLITNYHVKEQIISSAEKAQIKLQRCVSSESSDGSVVHKEVGGIKTGTIALPCKNKNETNETISLNDVDDLVKLLQYIVKK
soluble on expression in E. coli: not soluble

---

experiment: soluble on expression in E. coli; label from the status in PepcDB or PDB records
Parameter: soluble on expression in E. coli

Item sequence: GAMEVIKNPKVFIDPLSVFKEIPFREDILRDAAIAIRYFVKNEVKFSNLFLGLTGTGKTFVSKYIFNEIEEVKKEDEEYKDVKQAYVNCREVGGTPQAVLSSLAGKLTGFSVPKHGINLGEYIDKIKNGTRNIRAIIYLDEVDTLVKRRGGDIVLYQLLRSDANISVIMISNDINVRDYMEPRVLSSLGPSVIFKPYDAEQLKFILSKYAEYGLIKGTYDDEILSYIAAISAKEHGDARKAVNLLFRAAQLASGGGIIRKEHVDKAIVDYEQERLIEAVKALPFHYKLALRSLIESEDVMSAHKMYTDLCNKFKQKPLSYRRFSDIISELDMFGIVKIRIINRGRAGGVKKYALVEDKEKVLRALNETFEDSISIGDFDDVGEN
Parameter: soluble on expression in E. coli
Measurement: soluble

Item sequence: LWVYPARKPRGKAIIMCPGGGFNQIASDHEGRDFAAWFNNQGITYAVLNYRMPHGDVEVIREDIREAIRLIRRQSAEWGIHQLGVMGASIGGYIAATAATLYTGTDRPDFQVLLYPVISMTDRLTHWPSRERMLGETISEGLKETLSLELHVTADTPPTFIVLAEDDQAVSPLNSIVYYTALLKHGVSAGLHIYPEGGHSFGFRDSFIYKELWTDELQKWL
Parameter: soluble on expression in E. coli
Measurement: not soluble

Item sequence: SAFQKAASLLGAPIGHDFCVISLSDLMTPWERIERRILAAAQADFVTAVYNPKSDGRYWQIYRLREIFLREGRSPETPVGYVRQAGREEQEIHITTLAAFDPETVDMFTVVLIGNSQTY
Parameter: soluble on expression in E. coli
Measurement: not soluble

Item sequence: GIDPFTNEAASAAGVVGGMVDSITQAINQLDEGPMGDPEGSFVDYQTTMVRTAKAIAVTVQEMVTKSNTSPEELGPLANQLTSDYGRLASQAKPAAVAAENEEIGAHIKHRVQELGHGCSALVTKAGALQCSPSDVYTKKELIECARRVSEKVSHVLAALQAGNR
Parameter: soluble on expression in E. coli
Measurement: soluble

Item sequence: MHHHHHHENLYFQGSTSENITQKVVWVEESDKRSFLLDLLNATGKDSLTLVFVETKKGADSLEDFLYHEGYACTSIHGDRSQRDREEALHQFRSGKSPILVATAVAARGLDISNVKHVINFDLPSDIEEYVHRIGRTGRVGNLGLATSFFNERNINITKDLLDLLVEAKQEVPSWLENMAYEHHY
Parameter: soluble on expression in E. coli
Measurement: soluble

Item sequence: MRLTIPILKEGGMLMKFGFIGAGKVGFSLGKYLADNNQNVVGYYSIINEEAIEAAKFTGSKYYENMEQLVEDSEVLFLTVPDGQIENLWNQLKSSHKNWMAKYNKPLLNNKIVCHCSGALSSDIFSSIAEYESFGYSIHPLFAVSNRYESYKELSDSYFTIEGNIEKINKMKELFESFGNTVCIISKDDKIKYHGAAAIASNLVVGLIGLSEELLKQCGFDEKSAHNALAPIIKGNVKHIVEEGVVEALTGPIERCDVSTVRKHMSVFDKKTNEIYKAVSKEVLEIAKIKNKDRDYSKMEEVLQ
Parameter: soluble on expression in E. coli
Measurement: not soluble

Item sequence: MPIATVCTWPAETEGGSTVVAADHASNYARKLGIQRDQLIQEWGWDEDTDDDIRAAIEEACGGELLDEDTDEVIDVVLLWWRDGDGDLVDTLMDAIGPLAEDGVIWVVTPKTGQPGHVLPAEIAEAAPTAGLMPTSSVNLGNWSASRLVQPKSRAGKR
Parameter: soluble on expression in E. coli
Measurement: soluble

Item sequence: MKIRSLIRVRLTRFFPSDRYIKNRCSGADGVLIDFEKKEDKVDDYKLSSFHRLKNSKFSLPKLLVDPVTTNSNQWIPRLIEEKSVDGVAMRNFTDDVISLDNEIFTMIWDTREQRITHSIISYHRINDCDIMWNSSIRTAVQDSLEHDIQPLAARTLRFRDYETAVQEFEILRQIGFTGAVIRNPNLIEMTNEIFEK
Parameter: soluble on expression in E. coli
Measurement: not soluble

Item sequence: DVSGTVCLSALPPEATDTLNLIASDGPFPYSQDGVTFQNRESVLPTQSYGYYHEYTVITPGARTRGTRRIITGEATQEDYYTGDHYATFSLIDQTC
Parameter: soluble on expression in E. coli
Measurement: soluble

Item sequence: MAIKGLDQAIDNLSRVRKNAIPAASAMTINRVATTAINQSSSQVARETKVRRKLVKERSRLKRATVRNPNAKIIVNRGDLPVIKLGIRMLGRRPNSILKAGQHRYQRAFIQRLKNGRWHVMQRVAGKNRYPIDVVKIPMAAPLKQAFDENVDRIRCERLPGELASALKQQLRIAIKR
Parameter: soluble on expression in E. coli
Measurement: not soluble

Item sequence: MSLTIYVYVLDTLADWEIGYVNSELNSRRFFKKDANRVSLKTVSYSKEPIKTMGGMTIVPDCVIDDIVMSETSVLLLPGADTWNNLEHKAIIKKASELLALNATVAAICGATVALANHGLLDNRPHTSNGAGFLEMFSSSYKGQNSYINELSVWDNNLITASSAGALLWAKQIIAHLDVFESNTLESWYAYFNTGDPKHFYALMESLPDNNEGHHHHHH
Parameter: soluble on expression in E. coli
Measurement: soluble

Item sequence: MAGDPMAHITRFEAPWFLMISKKQYKWTVRPNAGPHSIEKSIPLAVVIRDYLKLAGTIREAKHIIFDGKVLVDGKVRKDYKYPVGLMDIVSIPSADLYFRVLPDNVRFMRFSKISADEARYKYVRIINKTTIKEGRIQLNLEDGRNILVDKETAKNFKTLMTLKIELPSQQILDSFTISERSYAIFVGGRNVGIHGIVKNINLSKFKSRKYSVITLESRDGNTYQTNIMNVMSIGREKSDLRVDLEHHHHHH
Parameter: soluble on expression in E. coli
Measurement: soluble

Item sequence: MGSDKIHHHHHHMSQDDHSRDSAGLTYVYPVVSRRAGGVSIGINLNPNNACNWRCIYCQVPDLKRGTAPVIDLVRLEQELRDFLHELVYGNFMQEKVPPETRVIKDIALSGNGEPTSAREFEQIIEIIGRVKADFPLPEELKLVLITNGSLINRMYVQKGLHLMAGLNGEVWFKLDSVTQTGRLRINNTRASLQRMRDNLQTAASLCPTWLQTCVFKLKGVHPDTHETDAYIGFIRTLLQEGTQIRGVLLYTLARPALQPEAPDLSKADPDWIKTFADKIRALGIPVRTAF
Parameter: soluble on expression in E. coli
Measurement: not soluble
